B1: Zinc finger MYM-type protein 3, residues 405 to 444; numbered along this chain, Q14202 (parent)
chain: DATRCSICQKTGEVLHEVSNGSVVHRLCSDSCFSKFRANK

# Variants of: B1
# Test Details: abundance fitness (aPCA) (normalised: wild type 0, dead -1); higher = more abundant; growth selection in yeast, the domain comes from the species named
# Condition Context: Homo sapiens
Each entry gets 0.0 if its abundance fitness stays under -0.3, and 1.0 if its abundance fitness is -0.3 or above.

Please review the following examples before continuing.
Variant Notation	Group Label
S29L	0.0
Q9R	1.0
I7F	1.0
C28Q	0.0
R37H	1.0

Now examine the next entry.
Inquiry: Hi, just wondering whether `R37D` shows abundance fitness of -0.3 or higher.
Reply text: 1.0
